# SYSTEM: S1P4 (Homo sapiens)
# Sequence (O95977 whole entry): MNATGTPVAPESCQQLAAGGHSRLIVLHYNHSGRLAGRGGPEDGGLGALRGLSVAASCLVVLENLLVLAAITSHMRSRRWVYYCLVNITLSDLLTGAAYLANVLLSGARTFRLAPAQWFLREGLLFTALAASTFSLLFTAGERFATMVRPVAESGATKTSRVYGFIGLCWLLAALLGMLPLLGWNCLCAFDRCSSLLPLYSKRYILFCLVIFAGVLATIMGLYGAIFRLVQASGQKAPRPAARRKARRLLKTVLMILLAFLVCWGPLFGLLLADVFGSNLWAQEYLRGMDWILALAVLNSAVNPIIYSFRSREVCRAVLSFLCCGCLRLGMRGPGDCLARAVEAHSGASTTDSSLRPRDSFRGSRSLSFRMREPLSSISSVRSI
# PROCEDURE_TEXT: Aequorin assay, agonist potency, S1P4
# STATED_CONDITIONS: agonist mode, aequorin luminescence
# Description: Agonistic activity was measured as described below. 18 hours prior to the test, vials of frozen cells are quickly thawed in a 37° C. water bath, cells are recovered by centrifugation and resuspended in assay buffer (DMEM/HAM's F12 with HEPES, without phenol red+0.1% fatty acid-free BSA). […] Cells are then placed in the luminescence reader (Hamamatsu Functional Drug Screening System 6000, FDSS6000). […] The resulting emission of light is recorded for 90 seconds using the FDSS6000. […]
MEASURED_ENDPOINT: EC50

# input Give me measured EC50, please, for this compound: COc1ccc(C#Cc2ccc3c(c2)CC2(C3)CN(CC3(C(=O)O)CC3)C2)c(C)c1
# output < 1000 nM

# input Please give measured EC50 of the following entry: CCOc1cc(F)c(COc2ccc3c(c2)CC2(C3)CN(CC3(C(=O)O)CC3)C2)c(F)c1
# output < 1000 nM

# input Could you please provide reported EC50 for O=C(O)C1(CN2CC3(Cc4ccc(-c5ccc(OCc6ccccc6)cc5)cc4C3)C2)CC1 ? Thanks!
# output < 1000 nM

# input Tell me measured EC50 for O=C(O)CN1CC2(Cc3ccc(OCCOc4ccc(Cl)cc4)cc3C2)C1 please.
# output > 1000 nM

# input Quote EC50 reported for CCc1cccc(Cl)c1COc1ccc2c(c1)CC1(C2)CN(CC(C)CC(=O)O)C1 (centres unmarked) please.
# output < 1000 nM

# input Note down EC50 recorded for O=C(O)C1(CN2CC3(Cc4ccc(C#Cc5ccc(OC6CCCC6)nc5)cc4C3)C2)CC1
# output > 1000 nM

# input Identify the reported EC50 for the following entry. CCOc1ccc(C#Cc2ccc3c(c2)CC2(C3)CN(CC(=O)O)C2)cc1
# output < 1000 nM

# input Hello, please tell me recorded EC50 for this one: Cc1cccc(F)c1COc1ccc2c(c1)CC1(C2)CN(CC2(C(=O)O)CC2)C1
# output < 1000 nM

====

Assign pEC50 to each entry below.
# SYSTEM: UniProt P21453
# Sequence (P21453 whole entry): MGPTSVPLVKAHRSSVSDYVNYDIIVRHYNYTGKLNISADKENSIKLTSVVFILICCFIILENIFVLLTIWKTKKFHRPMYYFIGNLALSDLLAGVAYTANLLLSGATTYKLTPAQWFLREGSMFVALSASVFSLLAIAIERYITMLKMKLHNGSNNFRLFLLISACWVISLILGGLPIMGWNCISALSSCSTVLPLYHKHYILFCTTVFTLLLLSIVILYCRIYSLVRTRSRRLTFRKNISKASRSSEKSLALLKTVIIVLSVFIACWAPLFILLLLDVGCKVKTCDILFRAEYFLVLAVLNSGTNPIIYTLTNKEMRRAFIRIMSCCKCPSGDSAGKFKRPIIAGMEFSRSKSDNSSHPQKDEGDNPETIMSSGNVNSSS
# PROCEDURE_TEXT: Aequorin assay, agonist potency, CHO-A21-Edg1#17 cells
# STATED_CONDITIONS: agonist mode, aequorin luminescence; read-out: S1P1 EC50
pEC50: −log10 of the molar value.

# input For the compound O=C(O)CN1CC2(Cc3ccc(OCc4c(Cl)cccc4C(F)(F)F)cc3C2)C1 [Example 20] , give its reported pEC50.
# output < 6.00

# input Provide measured pEC50 value, entry: O=C(O)C1(CN2CC3(Cc4ccc(OCCc5ccccc5F)cc4C3)C2)CC1 [Example 136]
# output < 6.00

# input Return pEC50 for the following compound: O=C(O)C1(CN2CC3(Cc4ccc(OC5CCc6cccc(Cl)c65)cc4C3)C2)CC1 (centres unmarked) [Example 129]
# output < 6.00

# input Name the recorded pEC50 of the item CCOc1ccc(COc2ccc3c(c2)CC2(C3)CN(CC3(C(=O)O)CC3)C2)cc1 [Example 35] in your answer.
# output < 6.00

# input # return recorded pEC50 for entry O=C(O)C1(CN2CC3(Cc4ccc(OCCc5cccc(F)c5)cc4C3)C2)CC1 [Example 148]
# output < 6.00

# input Write down pEC50 measured for item COc1cccc(Cl)c1COc1ccc2c(c1)CC1(C2)CN(CC2(C(=O)O)CC2)C1 [Example 31]
# output < 6.00

# input State, in one line, measured pEC50 of O=C(O)C1(CN2CC3(Cc4ccc(OCc5c(Cl)cccc5Cl)cc4C3)C2)CC1 [Example 46]
# output < 6.00

# input Please supply the value of reported pEC50 for the item CCc1cccc(Cl)c1COc1ccc2c(c1)OC1(C2)CN(CC(=O)O)C1 [Example 158]
# output > 6.00
